System Tested: SHP2 protein (Homo sapiens, UniProt Q06124)
Sequence (Q06124 1-593): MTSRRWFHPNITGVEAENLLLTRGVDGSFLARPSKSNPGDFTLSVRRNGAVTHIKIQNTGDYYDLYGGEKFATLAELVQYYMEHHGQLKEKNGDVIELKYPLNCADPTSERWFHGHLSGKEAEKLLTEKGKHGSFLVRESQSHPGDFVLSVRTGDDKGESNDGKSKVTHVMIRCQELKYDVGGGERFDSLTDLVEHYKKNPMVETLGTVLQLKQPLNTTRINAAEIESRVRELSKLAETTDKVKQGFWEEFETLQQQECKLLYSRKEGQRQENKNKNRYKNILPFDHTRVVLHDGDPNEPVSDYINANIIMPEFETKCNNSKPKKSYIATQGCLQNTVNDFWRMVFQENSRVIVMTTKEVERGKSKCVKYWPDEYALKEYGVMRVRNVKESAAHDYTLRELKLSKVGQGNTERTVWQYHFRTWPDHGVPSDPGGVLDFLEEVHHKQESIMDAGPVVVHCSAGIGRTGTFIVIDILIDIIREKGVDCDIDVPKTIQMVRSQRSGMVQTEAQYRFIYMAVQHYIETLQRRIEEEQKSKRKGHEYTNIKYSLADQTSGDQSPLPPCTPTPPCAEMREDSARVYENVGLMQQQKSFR
Procedure Summary: Degradation activity on SHP2 protein in MIA Paca-2 cells (Western blot, DC50)
Format: cell-based
Parameters: endogenous in cells; host or cells: MIA Paca-2 cells
Details: read-out: Degradation activity for differenct cell lines MIA Paca-2 (DC50)
Recorded Endpoint: DC50

Task: Record request: DC50 value, item "Cc1ncsc1-c1ccc([C@H](C)NC(=O)[C@@H]2C[C@@H](O)CN2C(=O)[C@@H](NC(=O)c2ccc(N3CCC4(CN(CCC(=O)Nc5cccc(Sc6cnc(N7CCC(C)(N)CC7)cn6)c5)C4)C3)nn2)C(C)(C)C)cc1"
Output: 100 to 1000 nM

Task: Given CC1(N)CCN(c2cnc(Sc3cccc(NC(=O)c4ccc(N5CCC(N6CCN(c7ccc(C(=O)NCc8ccc9c(c8)CN(C8CCC(=O)NC8=O)C9=O)nc7)CC6)CC5)nc4)c3)cn2)CC1 (stereo not shown) , state its recorded DC50.
Output: 100 to 1000 nM

Task: Item under review: CC1(N)CCN(c2cnc(Sc3cccc(NC(=O)c4ccc(N5CCC(N6CC=C(c7ccc(C(=O)NCc8ccc9c(c8)CN(C8CCC(=O)NC8=O)C9=O)nc7)CC6)CC5)cc4)c3)cn2)CC1 (stereo not shown) . Reported DC50?
Output: < 100 nM

Task: Would you mind telling me what DC50 value was observed for CC1(N)CCN(c2cnc(Sc3cccc(NC(=O)C4CCC(N5CC=C(c6ccc(C(=O)N7CCN(c8ccc9c(c8)CN(C8CCC(=O)NC8=O)C9=O)CC7)nc6)CC5)CC4)c3)cn2)CC1 (stereo not shown) ?
Output: > 1000 nM

Task: Any idea what DC50 was measured for Cc1cc(C(=O)NCc2ccc3c(c2)CN(C2CCC(=O)NC2=O)C3=O)ncc1C1=CCN(C2CCN(c3ccc(C(=O)Nc4cccc(Sc5cnc(N6CCC7(CC6)CO[C@@H](C)[C@H]7N)cn5)c4)cc3F)CC2)CC1 (stereo partly shown) [Compound 465] ?
Output: < 100 nM

Task: Suppose we examine the molecule CC1(N)CCN(c2cnc(Sc3cccc(NC(=O)C4CC45CCC(N4CC=C(c6ccc(C(=O)Nc7ccc8c(c7)CN(C7CCC(=O)NC7=O)C8=O)nn6)CC4)CC5)c3)cn2)CC1 (single isomer, unassigned) [Compound 320] ; what DC50 value has been reported?
Output: > 1000 nM

Task: Can you share its DC50? I mean this molecule: CC1(N)CCN(c2cnc(Sc3cccc(NC(=O)c4ccc(N5CCC(N6CC=C(c7ccc(C(=O)NCc8ccc9c(c8)CN(C8CCC(=O)NC8=O)C9=O)nc7)C6)CC5)c(F)c4)c3)cn2)CC1 (stereo not shown)
Output: < 100 nM

Task: Please report the recorded DC50 for C[C@@H]1OCC2(CCN(c3cnc(Sc4cccc(NC(=O)c5ccc(N6CCC(N7CC=C(c8ccc(C(=O)NCc9ccc%10c(c9)CN(C9CCC(=O)NC9=O)C%10=O)c(Cl)c8)CC7)CC6)c(F)c5)c4)cn3)CC2)[C@@H]1N (stereo partly shown) .
Output: 100 to 1000 nM

Task: Look at this molecule and give its reported DC50. CC1(N)CCN(c2cnc(Sc3cccc(NCC4CCC(N5CCN(c6ccc7c(c6)CN(C6CCC(=O)NC6=O)C7=O)CC5)CC4)c3)cn2)CC1 (stereo not shown)
Output: > 1000 nM

Task: Consider the molecule CC1(N)CCN(c2cnc(Sc3cccc(NC(=O)CCCCCCN4CC5(CCN(c6ccc(C#Cc7ccc8c(c7)CN(C7CCC(=O)NC7=O)C8=O)nn6)C5)C4)c3)cn2)CC1 (stereo not shown) and give its measured DC50.
Output: > 1000 nM
